Where do the numbers come from? From ChEMBL document CHEMBL4346662.

# target_or_test_system: Pyruvate kinase PKM (Homo sapiens, UniProt P14618)
# Sequence (P14618 whole entry): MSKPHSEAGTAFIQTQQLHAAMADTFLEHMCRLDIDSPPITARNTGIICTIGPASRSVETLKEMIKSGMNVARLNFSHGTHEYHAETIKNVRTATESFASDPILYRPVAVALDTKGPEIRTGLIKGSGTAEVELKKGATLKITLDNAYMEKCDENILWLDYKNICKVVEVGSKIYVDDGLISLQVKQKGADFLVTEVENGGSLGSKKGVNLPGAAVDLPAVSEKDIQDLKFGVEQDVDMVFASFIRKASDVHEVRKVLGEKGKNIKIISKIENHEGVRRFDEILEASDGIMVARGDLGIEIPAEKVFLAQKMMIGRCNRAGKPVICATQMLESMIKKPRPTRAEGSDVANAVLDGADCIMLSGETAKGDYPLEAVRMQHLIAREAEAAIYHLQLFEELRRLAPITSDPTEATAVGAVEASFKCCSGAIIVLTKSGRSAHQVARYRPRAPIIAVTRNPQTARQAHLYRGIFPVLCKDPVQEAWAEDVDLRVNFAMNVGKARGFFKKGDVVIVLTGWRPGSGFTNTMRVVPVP
# experiment: Activation of human recombinant His-tagged PKM2 expressed in Escherichia coli using PEP as substrate measured at 30 sec between 3 and 6 mins in presence of […] by fluorescent pyruvate kinase-lactate dehydrogenase coupled assay
# condition_info: read-out: AC50
attribute_measured: AC50 (nM)

# annotated cases, reported AC50 shown
>>> result_number("O=C(CCSC(=S)NCc1cccnc1)c1c[nH]c2ncc(Cl)cc12")
180
>>> result_number("Cn1cc(C(=O)CCSC(=S)NCc2cccnc2)c2cccnc21")
4350
>>> result_number("O=C(CCSC(=S)NCc1cccnc1)c1cn(-c2ccccc2)c2ncccc12")
2500
>>> result_number("O=C(CCSC(=S)NCc1cccnc1)c1cn(CC(F)F)c2ncccc12")
2670
>>> result_number("O=C(CCSC(=S)NCc1cccnc1)c1c[nH]c2nccc(-c3ccccc3)c12")
2170

a. O=C(CCSC(=S)NCc1cccnc1)c1c[nH]c2nccc(Br)c12
b. O=C(CCSC(=S)NCc1cccnc1)c1c[nH]c2nccc(Cl)c12
Prompt: Sorting by AC50 in descending order, would a or b appear first? Give the label of your selection.
Response: b
(b: 1140 nM, a: 610 nM)

---

# System: HCT-116
# experiment: Antiproliferative activity against human HCT116 cells assessed as reduction in cell growth incubated for 72 hrs by CellTiter-Glo assay
# Format: functional, cell-based
# condition_info: HCT-116, 72 h
attribute_measured: IC50 (µM)

>>> result_number("Cn1cc(C(=O)CCSC(=S)NCc2cccnc2)c2cccnc21")
0.94
>>> result_number("O=C(CCSC(=S)NCc1cccnc1)c1cn(-c2ccccc2)c2ncccc12")
5.36
>>> result_number("O=C(CCSC(=S)NCc1cccnc1)c1c[nH]c2nccc(Br)c12")
4.9

a. O=C(CCSC(=S)NCc1cccnc1)c1cn(CC(F)F)c2ncccc12
b. O=C(CCSC(=S)NCc1cccnc1)c1c[nH]c2nccc(Cl)c12
c. O=C(CCSC(=S)NCc1cccnc1)c1c(-c2ccccc2)nn2ncccc12
Prompt: Put the items in sequence by IC50, from largest down. Give the labels in the order requested.
Response: c, b, a
(c: 9.08 µM, b: 2.06 µM, a: 0.71 µM)

---

# experiment: Cytotoxicity against mouse C2C12 cells assessed as reduction in cell viability at 20 uM incubated for 72 hrs by CellTiter-Glo assay relative to control
# Assay type: cell-based
# condition_info: read-out: INH
attribute_measured: cytotoxicity at 72 h, 20 µM (%)
Provide only the numeric value, understood in %.

Prompt: # get_value(readout='cytotoxicity at 72 h, 20 µM', item= O=C(CCSC(=S)NCc1cccnc1)c1cn(CC(F)F)c2ncccc12 )
Response: 46

---

# Tested on: C2C12
# experiment: Cytotoxicity against mouse C2C12 cells assessed as reduction in cell viability incubated for 72 hrs by CellTiter-Glo assay
# Type: cell-based
# condition_info: C2C12, 72 h
attribute_measured: IC50

Prompt: # get_value(readout='IC50', item= O=C(CCSC(=S)NCc1cccnc1)c1cn(CC(F)F)c2ncccc12 )
Response: > 20 µM

---

# Test system: A-375
# experiment: Antiproliferative activity against human A375 cells assessed as reduction in cell growth incubated for 72 hrs by CellTiter-Glo assay
# Assay type: functional, cell-based
# condition_info: A-375, 72 h
attribute_measured: IC50 (nM)

# annotated cases, reported IC50 shown
>>> result_number("O=C(CCSC(=S)NCc1cccnc1)c1c[nH]c2nccc(Br)c12")
1990
>>> result_number("O=C(CCSC(=S)NCc1cccnc1)c1c[nH]c2ncccc12")
1030

P. O=C(CCSC(=S)NCc1cccnc1)c1cn(C2CCC2)c2ncccc12
Q. O=C(CCSC(=S)NCc1cccnc1)c1c[nH]c2ncc(Cl)cc12
Prompt: Sorting by IC50 in descending order, would P or Q appear first? Give the label of your selection.
Response: Q
